Tested On: α-Glucosidase (Saccharomyces cerevisiae);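 further: yeast α-glucosidase premixed with inhibitor in phosphate buffer for 15 min at 37 °C, then a further 15 min reaction with p-NPG substrate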
Construct: purchased Sigma (Sigma-Aldrich) G5003
Sequence (P53341 whole entry): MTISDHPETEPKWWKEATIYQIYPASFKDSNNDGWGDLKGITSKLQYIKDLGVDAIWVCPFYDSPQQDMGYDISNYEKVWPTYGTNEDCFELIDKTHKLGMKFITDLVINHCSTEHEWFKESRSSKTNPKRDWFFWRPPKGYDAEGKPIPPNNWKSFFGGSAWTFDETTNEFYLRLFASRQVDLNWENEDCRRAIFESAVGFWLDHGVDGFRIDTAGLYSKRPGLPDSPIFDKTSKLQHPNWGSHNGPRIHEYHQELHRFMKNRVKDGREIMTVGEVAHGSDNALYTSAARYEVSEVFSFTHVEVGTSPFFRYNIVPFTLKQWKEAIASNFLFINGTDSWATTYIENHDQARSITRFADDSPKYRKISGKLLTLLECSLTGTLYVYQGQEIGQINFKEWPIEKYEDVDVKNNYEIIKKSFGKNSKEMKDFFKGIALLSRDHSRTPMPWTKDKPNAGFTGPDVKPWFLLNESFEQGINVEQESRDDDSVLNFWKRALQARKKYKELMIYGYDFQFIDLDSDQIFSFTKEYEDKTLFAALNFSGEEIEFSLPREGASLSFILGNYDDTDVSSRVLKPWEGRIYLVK
Assay Overview: biochemical
Condition Context: concentration 2.0 μg·mL-1; read-out: α-glucosidase inhibition rate
Quick reference for inhibition at 2 µg/mL among some molecules

- Molecule: "CC(C)(O)[C@@H]1CC[C@]2(C)CC[C@]3(C)[C@H](CC[C@@H]4[C@@]5(C)CCC(=O)C(C)(C)[C@@H]5CC[C@]43C)[C@@H]12 [Compound 5, 20-hydroxy-lupan-3-one]"
  inhibition at 2 µg/mL, %: 7.2
- Molecule: "C=C(C)[C@@H]1CC[C@]2(C(=O)O)CC[C@]3(C)[C@H](CC[C@@H]4[C@@]5(C)CCC(=O)C(C)(C)[C@@H]5CC[C@]43C)[C@@H]12"
  inhibition at 2 µg/mL, %: 10.1
- Molecule: "CC(=O)O[C@H]1CC[C@]2(C)[C@H]3CC[C@@H]4[C@@H]([C@@](C)(O)CCC=C(C)C)CC[C@@]4(C)[C@]3(C)CC[C@H]2C1(C)C [Compound 8, dammar-24-ene-3β-acetoxy-20S-ol]"
  inhibition at 2 µg/mL, %: 3.7
- Molecule: "CC(C)(O)[C@@H]1CC[C@]2(C)CC[C@]3(C)[C@H](CC[C@@H]4[C@@]5(C)CC[C@H](O)C(C)(C)[C@@H]5CC[C@]43C)[C@@H]12"
  inhibition at 2 µg/mL, %: 2.2
- Molecule: "C=C(C)[C@@H]1CC[C@]2(C)CC[C@]3(C)[C@H](CC[C@@H]4[C@@]5(C)CC[C@H](O)C(C)(C)[C@@H]5CC[C@]43C)[C@@H]12"
  inhibition at 2 µg/mL, %: 12.5
